B1: TPR 5TU (parent)
chain: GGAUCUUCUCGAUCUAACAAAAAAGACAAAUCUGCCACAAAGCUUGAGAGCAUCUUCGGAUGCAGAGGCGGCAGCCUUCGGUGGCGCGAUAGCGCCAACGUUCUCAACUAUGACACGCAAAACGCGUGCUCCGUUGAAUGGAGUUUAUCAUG

- Variants of: B1
- method.summary: polymerase ribozyme fitness, log enrichment relative to wild type (log ratio); higher = more active; in vitro selection for triplet polymerase activity
Fewer inactive variants are shown than the library holds.
Each entry gets no if its polymerase ribozyme fitness (log ratio) stays under -1, and yes if its polymerase ribozyme fitness (log ratio) is -1 or above.

# example entries with known answers
variant.code	assigned.category
U13A U15C A26C C93A	no
U4A A22U A40G U145A	no

Turning now to a further record.
Does A20G U104C G117U have a reported polymerase ribozyme fitness (log ratio) of at least -1?
yes
